Where these numbers come from: patent US8791132B2

Reported inhibition at 0.03 µM is given for each of the following molecules.
TARGET OR SYSTEM: rat adrenergic α1B receptor (Rattus norvegicus, UniProt P15823)
Construct: rat adrenergic α1B receptor obtained from Wistar Rat liver; from tissue; host or cells: Wistar rat liver
Sequence (P15823 1-515): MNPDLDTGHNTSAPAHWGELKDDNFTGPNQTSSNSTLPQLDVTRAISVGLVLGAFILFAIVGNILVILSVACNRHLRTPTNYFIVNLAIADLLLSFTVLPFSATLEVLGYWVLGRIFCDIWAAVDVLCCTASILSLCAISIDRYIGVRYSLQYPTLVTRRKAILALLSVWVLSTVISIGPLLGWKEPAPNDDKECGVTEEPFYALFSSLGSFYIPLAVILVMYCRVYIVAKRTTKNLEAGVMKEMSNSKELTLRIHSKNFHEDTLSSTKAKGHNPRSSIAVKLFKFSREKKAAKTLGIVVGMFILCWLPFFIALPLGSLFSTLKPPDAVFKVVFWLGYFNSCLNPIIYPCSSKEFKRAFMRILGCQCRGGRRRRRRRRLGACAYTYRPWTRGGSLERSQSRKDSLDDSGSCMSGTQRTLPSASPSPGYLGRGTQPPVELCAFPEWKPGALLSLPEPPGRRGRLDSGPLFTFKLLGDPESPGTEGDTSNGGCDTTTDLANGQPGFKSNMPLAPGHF
PROTOCOL DETAILS: Radioligand binding, adrenergic α1B ([3H]Prazosin)
CONDITION SET: read-out: Percentage inhibition of ligand binding, Adrenergic α1B (0.03 μM), compound at 0.03 μM; [3H]Prazosin; repeat datapoints each shown
Please give a number only; it is taken to be in %.

{"MOLECULE": "Cc1ccc2c(c1)c1c(n2C2=C(c3ccc(C)s3)CCC2)CCN(C)C1 [compound 190]", "inhibition at 0.03 µM, %": 9}
{"MOLECULE": "Cc1ccc2c(c1)c1c(n2CC(O)c2ccncc2C)CCN(C)C1 (single isomer, unassigned) [133b]", "inhibition at 0.03 µM, %": 16}
{"MOLECULE": "Cc1ccc2c(c1)c1c(n2CC(O)c2ccc(C(N)=O)nc2)CCN(C)C1 (single isomer, unassigned) [144b]", "inhibition at 0.03 µM, %": 28}

Lab note: next molecule to report on.
Asked: For the molecule CN1CCc2c(c3cc(Cl)ccc3n2CCc2ccc(Cl)cc2)C1 [compound 213] , what inhibition at 0.03 µM is on record?
Given back: 53
